src = ChEMBL document CHEMBL3433997

Target: Solute carrier family 2, facilitated glucose transporter member 1 (Homo sapiens) (UniProt P11166)
Sequence (P11166 whole entry): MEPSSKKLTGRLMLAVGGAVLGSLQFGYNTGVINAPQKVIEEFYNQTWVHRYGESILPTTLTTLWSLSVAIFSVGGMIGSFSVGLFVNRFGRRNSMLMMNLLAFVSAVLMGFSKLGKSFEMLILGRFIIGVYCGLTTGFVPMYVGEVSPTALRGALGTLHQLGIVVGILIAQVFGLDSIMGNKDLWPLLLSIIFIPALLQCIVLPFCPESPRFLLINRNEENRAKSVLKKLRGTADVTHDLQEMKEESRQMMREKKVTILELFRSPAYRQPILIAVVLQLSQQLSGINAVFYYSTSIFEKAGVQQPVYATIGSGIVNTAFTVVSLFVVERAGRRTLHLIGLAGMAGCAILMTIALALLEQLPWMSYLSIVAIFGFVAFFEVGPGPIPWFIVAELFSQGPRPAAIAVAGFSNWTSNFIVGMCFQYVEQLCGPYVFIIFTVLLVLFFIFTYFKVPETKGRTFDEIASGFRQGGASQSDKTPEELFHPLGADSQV
Test: ST_JUDE_LEISH: Cytotoxicity at 2uM final concentration against transgenic Leishmania Mexicana promastigotes LmGLUT1 that are glucose transport deficient and complemented with the human glucose transporter GLUT1. Activity is measured by DNA content using SYBR green in vitro
Type: functional
OUTCOME MEASURE: inhibition (%)
Value expressed in %; do not type the unit.

I have this molecule here, COC(=O)c1cccc(NC(=O)NC2CCN(c3ccnc(Nc4cc(OC)c(OC)c(OC)c4)n3)C2)c1 (centres undefined) , and I need its recorded inhibition. 10.5

Lookup `CN1CCN(Cc2cc(NC(=O)c3ccc(-c4ccc(Cl)cc4Cl)cc3)ccc2-c2ccccc2)CC1` 6.54

Lookup `COc1cccc(C2(c3cccc(OC)c3)N=C(N)N(CCCc3ccccc3)C2=O)c1` -0.49

Lookup `N#Cc1cccc(CN2CCCN(c3ccc(NC(=O)c4cccs4)cc3)CC2)c1` 4.81

Lookup `Cc1cc(C2CCN(CCCCNC(=O)c3ccc(-c4ccc(C#N)cc4)cc3)CC2)c(C)cc1O` 4.77

Lookup `CN1CCN(CC(=O)Nc2ccc(-c3cccc(-c4nc5cc(C(F)(F)F)ccc5[nH]4)c3)cc2)CC1` 0.66

Lookup `COc1cc(C(=O)Nc2nc3ccccc3[nH]2)ccc1OCC(=O)Nc1cccc(C(F)(F)F)c1` 2.59

Lookup `N#Cc1c(N2CCN(c3ccc(F)cc3)CC2)nc(N)c2c(N)nc3c(c12)CC(=O)N3C1CC1` -2.19

Lookup `COc1cc2nc(N(C)C)nc(Nc3ccc4c(cnn4Cc4ccccc4)c3)c2cc1OC` -0.58

----------
Target: Hexose transporter 1 (Plasmodium falciparum) (UniProt O97467)
Assay: ST_JUDE_LEISH: Cytotoxicity at 2uM final concentration against transgenic Leishmania Mexicana promastigotes LmPfHT that are glucose transport deficient and complemented with the Plasmodium falciparum hexose transporter. Activity is measured by DNA content using SYBR green in vitro
Type: functional
OUTCOME MEASURE: inhibition (%)
Value expressed in %; do not type the unit.

I have this molecule here, `CCN(CC)CCN(Cc1ccc(-c2ccc(C(F)(F)F)cc2)cc1)C(=O)Cn1c(CCc2ccc(F)c(F)c2)cc(=O)c2ccccc21` , and I need its recorded inhibition. 7.35

Lookup `COCCNCc1ncsc1-c1ccc2c(Nc3ccc(Oc4ccccc4)cc3)ccnc2c1` 1.15

Lookup Nc1c(Cl)cc(C(O)CNCCCCCCOCCC=C2CCOCC2)cc1Cl (stereo not given) 0.32

Lookup `ON=C1CCc2cc(-c3nc(-c4ccc(OCCN5CCCCC5)cc4)[nH]c3-c3ccncc3)ccc21` -1.49

Lookup `CC(=O)Nc1cccc(C(=O)Nc2ccc(-c3cccc(-c4nc5cccc(C)c5[nH]4)c3)cc2)c1` 1.78

Lookup `c1ccc(-c2cc(NCCCCNc3cc(-c4ccccc4)nc4ccccc34)c3ccccc3n2)cc1` 7.17

Lookup `Nc1nc(N)c2c(Cl)c(N(Cc3ccccc3)Cc3ccccc3)ccc2n1` 23.5

Lookup `COc1cc2nc(Nc3ccc(C)cc3)nc(Nc3ccc(C)cc3)c2cc1OC` 101

Lookup `Cc1cc(N[C@@H](Cc2ccccc2)C(=O)Nc2ccccc2)nc(NCCc2ccccn2)n1` 4.95

Lookup `COc1cc(Nc2ccnc3ccc(C(C)(C)C)cc23)cc(OC)c1OC` 0.17

Lookup `CCN(CCCN1CCCCC1)c1cc(C)nc(Nc2ccc(Cl)cc2C)n1` 1.21

Lookup `CN(C)Cc1cc2c(O)c(Cc3ccccc3)ccc2o1` 4.63

Lookup `CS(=O)(=O)CCNCc1ccc(-c2ccc3c(Nc4ccc(Oc5ccccn5)cc4)ccnc3c2)o1` -0.28

Lookup `O=C(O)CCc1ccc(-c2c[nH]c3ncc(-c4ccc5ncccc5c4)cc23)cc1` 8.63

Lookup Cn1nc(-c2cccc(CNC3CCc4ccccc43)c2)c2cnc(NC3CCCC3)nc21 (stereo not given) 5.46

Lookup `Clc1ccc2c(NN=Cc3ccccc3)ccnc2c1` 6.89

Lookup `O=C(NCCCCCN1CCC(c2c[nH]c3ccccc23)CC1)c1ccc(Cl)c(Cl)c1` 4.92

Lookup `NCc1ccc(CNCc2ccc(-c3ccc(-c4nc5cc(F)ccc5[nH]4)cc3)cc2)cc1` 5.39

Lookup `Cc1cc(N[C@@H](CC(C)C)C(=O)NCc2cccs2)nc(NCCc2ccc(F)cc2)n1` -0.43

Lookup `Cc1ccc(/C=C/C(=O)NCCCCCN2CCN(C(=O)Nc3ccc(Cl)c(C(F)(F)F)c3)CC2)cc1` -0.2
